experiment: Pharmacokinetics after IV and oral administration to rats; type: in vivo; details: rat, in vivo, IV 1 mg/kg and oral 10 mg/kg, read-out: Absolute Bioavailability (BA)
measurement_name: bioavailability
Could you write the number and then its unit?

Request: Would you mind telling me what bioavailability value was observed for Oc1cc(-c2ccccc2)nn1-c1ccccn1 [Ewha-89403] ?
Result: 4.3%

###

Assay: Pharmacokinetics after IV and oral administration to rats
Type: in vivo
Details: rat, in vivo, oral 20 mg/kg
Description: Supplementary Table S1. Pharmacokinetic parameters of Ewha-89403 following IV and oral administration at the doses of 1 mg/kg and 10 mg/kg, respectively, to rats (n=4-5) PK Parameters IV Injection Oral Administration Absolute Bioavailability (BA) = 4.3 % Supplementary Table S2. Pharmacokinetic parameters of Ewha-18278 following IV and oral administration at the doses of 2 mg/kg and 20 mg/kg, respectively, to rats (n=5-6) […] Absolute Bioavailability (BA) = 63.8 %
measurement_name: Cmax (ng/mL)
Please give a number only; it is taken to be in ng/mL.

Request: # get_value(readout='Cmax', item= CCCc1c(-c2ccccc2)nn(-c2ccccn2)c1O )
Result: 5010
